assay_details: protein stability index of a GFP-peptide fusion (yeast GPS) (PSI 1-4); higher = more stable; sorted into four equal gates, so the index is relative within each strain
measurement_conditions: san1∆
property_label: protein stability index
No unit in the answer, please; the number alone is enough.

record_sequence	protein stability index
INMADRSLGLQQVVCIF [POP6]	1.4
SKQIFTHPKDTFYITRE [ARP9]	2.93
TKKISNFNSSLHKRQQF [YJL039C/NUP192]	1.4
VDPEQEAHNKALNQFKR [RPT4]	3.41
PFKGEVVDGTVVSCSQH [RPB7]	2.92
RVERSSRSTDNFHNSKK [RRI1]	2.99
DDDEVDYSEIQRSRRKF [DSN1]	3.04
VVDQLWSEISNELPDIE [RPN2]	2.75

Switching to the query record.
Req: Which protein stability index value is on record for DIEVPDVNALKFNNTQR [SNF12] ?
Resp: 2.98

====

assay_details: protein stability index of a GFP-peptide fusion (yeast GPS) (PSI 1-4); higher = more stable; sorted into four equal gates, so the index is relative within each strain
measurement_conditions: doa10∆
property_label: protein stability index
No unit in the answer, please; the number alone is enough.

record_sequence	experimental_result
IKSKADAWVSAAHYNRE [PRP8]	1.79
PQINILQPIKGESARRF [RPC40]	2.17
ERQQENLLIQRLNFNQN [SWI3]	3.26

Switching to the query record.
Req: Which protein stability index value is on record for MQKPVPFVPVLDRRFEI [FAS1] ?
Resp: 1.98

====

assay_details: protein stability index of a GFP-peptide fusion (yeast GPS) (PSI 1-4); higher = more stable; sorted into four equal gates, so the index is relative within each strain
measurement_conditions: doa10∆
Here the recorded protein stability index is given for each entry.

record_sequence	experimental_result
NAEVVAGNIKCRNDAVN [BRR2]	2.77
KNESATINEMMKHLGRS [FAS2]	2.6
QKKRVVDPFTRKEWFDI [RPS1A]	2.77
YSFGGLLMRLEGNYRNL [RPB8]	1.8
TLEQKVNLENPIPIAVL [FAS1]	1.35

Req: Which protein stability index value is on record for HANSVVALTGLLIRSKT [YML031W/NDC1] ?
Resp: 1.86

Req: Which protein stability index value is on record for LIKKAVSVRKHLERNRK [RPS13] ?
Resp: 3.43

Req: Which protein stability index value is on record for KLLLLRINSTDEDLHEF [SRB8] ?
Resp: 2.61

Req: Which protein stability index value is on record for YARFKNDFFPGEVVYLR [ITC1] ?
Resp: 3.29

Req: Which protein stability index value is on record for SINATALAFGYVKSLHK [SIN4] ?
Resp: 3.51

Req: Which protein stability index value is on record for NTMSAWVNMLLISSSGP [FAS2] ?
Resp: 1.99

Req: Which protein stability index value is on record for KPFLKGLVNHRVGVKLK [SMX3] ?
Resp: 2.76

Req: Which protein stability index value is on record for ESNNKKYPIFTGESWVK [YDL088C/ASM4] ?
Resp: 2.73

Req: Which protein stability index value is on record for VITIKSRIRVKIEGCIS [RPB7] ?
Resp: 2.04

Req: Which protein stability index value is on record for QAQAQAQAQAQAQAQAH [GAL11] ?
Resp: 2.84

Req: Which protein stability index value is on record for NLKEYNKFMSIFLKRKD [SRB8] ?
Resp: 1.64

Req: Which protein stability index value is on record for IPSLQNNIEENLRLLNS [ECM29] ?
Resp: 3.13

Req: Which protein stability index value is on record for TPDATKIKAILESVGIE [RPP2A] ?
Resp: 2.31

Req: Which protein stability index value is on record for EVDSASDFISKLEYPHT [RPN3] ?
Resp: 2.96

Req: Which protein stability index value is on record for AVEFESVPLRKGDRALL [BRR2] ?
Resp: 3.16

Req: Which protein stability index value is on record for EKDAKINKLMEKDFQVN [SIR4] ?
Resp: 3.22

Req: Which protein stability index value is on record for NQLVAKLLLLRINSTDE [SRB8] ?
Resp: 1.67

Req: Which protein stability index value is on record for ELLIYKKSQCKKKTTLE [YIL149C/MLP2] ?
Resp: 3.03

Req: Which protein stability index value is on record for EDDNNNVEKPSSKPAFN [YLR335W/NUP2] ?
Resp: 3.12

Req: Which protein stability index value is on record for MPSRFTKTRKHRGHVSA [RPL28] ?
Resp: 1.92

Req: Which protein stability index value is on record for EDKQNIEINEDNSQDDQ [RRI2] ?
Resp: 3.44

Req: Which protein stability index value is on record for KKEEKLNIGKNFAHSDS [SIR4] ?
Resp: 3.18

====

assay_details: protein stability index of a GFP-peptide fusion (yeast GPS) (PSI 1-4); higher = more stable; sorted into four equal gates, so the index is relative within each strain
measurement_conditions: doa10∆
Classification scheme (protein stability index): c1 = under 2, c2 = from 2 up to 3, c3 = 3 and over

record_sequence	assigned_category
MANIPERIINVGVIGPL [SNU114]	c2

Req: For this sequence, which bin applies? ISAFTQFLRLIFVSILS [ARP9]
Resp: c2

Req: For this sequence, which bin applies? VEIIDQKKVLIDGPKAG [RPL14A]
Resp: c2

Req: For this sequence, which bin applies? ILKEEFPKIDSLAQNDC [RPN5]
Resp: c3

Req: For this sequence, which bin applies? NTSSKRQKKKPTSAQKS [IRR1]
Resp: c2

====

assay_details: protein stability index of a GFP-peptide fusion (yeast GPS) (PSI 1-4); higher = more stable; sorted into four equal gates, so the index is relative within each strain
measurement_conditions: pdr5∆
property_label: protein stability index
No unit in the answer, please; the number alone is enough.

record_sequence	protein stability index
ITFHPKIRARSITLQGD [SMC2]	2.56
KQNEQLHVEQLSGGQKT [SMC3]	2.71
TETSNEDEDEDDETPSC [SNU114]	2.75
LQSLNESKDLLRASFNK [SRB4]	3.32
NVFARLSRLLSLWEVFQ [RPC82]	2.06

Req: Which protein stability index value is on record for LALSSNISRDFQSYIVS [COR1] ?
Resp: 2.71

Req: Which protein stability index value is on record for ASKSGKLTQKLVTAGVA [CYT1] ?
Resp: 1.83

Req: Which protein stability index value is on record for EIQPRANIQLDFPELKP [FAS2] ?
Resp: 3.11

Req: Which protein stability index value is on record for IRKDPNNLSNQLETLTG [CSE2] ?
Resp: 2.91

Req: Which protein stability index value is on record for SQKAKLMTFNAETKSYD [YLR335W/NUP2] ?
Resp: 2.27

Req: Which protein stability index value is on record for KKVNGTSYKKWSFDLPE [PRP8] ?
Resp: 2.36

Req: Which protein stability index value is on record for NGQSLSPVRSDSADVPA [YMR153W/NUP53] ?
Resp: 3.15

Req: Which protein stability index value is on record for TAEFGKILAGLHDTQIE [RPN10] ?
Resp: 3.44

Req: Which protein stability index value is on record for IDETMMDKPLNFRILKS [SRB5] ?
Resp: 3.09

====

assay_details: protein stability index of a GFP-peptide fusion (yeast GPS) (PSI 1-4); higher = more stable; sorted into four equal gates, so the index is relative within each strain
measurement_conditions: ubr1∆
property_label: protein stability index
No unit in the answer, please; the number alone is enough.

Here's what some known entries look like.
record_sequence	experimental_result
KKEENETISNVAKTAPN [SNF2]	2.94
AALRTVKSLVDNMITGV [RPL9A]	3.03
KELENNLERLRSDLQSK [YIL149C/MLP2]	3.2
RTSTRGRGRGRGRGRGR [SNF2]	3.08
FSRHAQQQTSTFNSKPV [SIR4]	2.38
TRPLTLSHGSLEHVLLV [FAS1]	3.12
SKQIFTHPKDTFYITRE [ARP9]	3.23
IPQSQQVPQVRSMSGQP [SNF5]	2.7

Req: Which protein stability index value is on record for PYFPGGSIAMARVLFDD [CYT1] ?
Resp: 2.69

Req: Which protein stability index value is on record for DAFNMLSLTTVPCDRIE [SNF6] ?
Resp: 2.4

Req: Which protein stability index value is on record for RHTTGTGRMRYLKHVSR [RPL37A] ?
Resp: 3.1

Req: Which protein stability index value is on record for LLREYDILSQILYGLVD [YJL039C/NUP192] ?
Resp: 2.19

Req: Which protein stability index value is on record for RINSTDEDLHEFQIEDA [SRB8] ?
Resp: 3.22

Req: Which protein stability index value is on record for LSEEETLLVIRRLHKVL [SNF2] ?
Resp: 2.21
